This section presents compounds with their documented MIC values.
test system: Enterococcus faecium; test: Antibacterial activity against vancomycin-resistant Enterococcus faecium ATCC 51559 after 24 hrs by broth microdilution assay; assay type: functional; details: ATCC 51559, 24 h
Write the number in µg/mL without appending the unit.

Smiles code	Unit symbol	MIC
CCCCCCN(Cc1c2ccccc2c(Cl)c2ccccc12)C(=O)[C@@H](N)CCCCN.O=C(O)C(F)(F)F.O=C(O)C(F)(F)F	µg/mL	5.2

# MIC of "CCCCN(Cc1c2ccccc2c(Cl)c2ccccc12)C(=O)[C@@H](N)CCCCN.O=C(O)C(F)(F)F.O=C(O)C(F)(F)F" = 5.3

----------
system: Klebsiella pneumoniae; test: Antibacterial activity against beta-lactam-resistant Klebsiella pneumoniae ATCC 700603 after 24 hrs by broth microdilution assay; format: functional; conditions: ATCC 700603, 24 h
Just a reminder that ties go to -1: only MIC strictly below 20 µg/mL counts as 1.

Here's what some known entries look like.
Smiles code	Answer label
CCCCCCCCCCCCN(Cc1cccc2ccccc12)C(=O)[C@@H](N)CCCCN.O=C(O)C(F)(F)F.O=C(O)C(F)(F)F	1
CCCCCCN(Cc1ccccc1)C(=O)[C@@H](N)CCCCN.O=C(O)C(F)(F)F.O=C(O)C(F)(F)F	-1
CCCCCCCCN(Cc1ccccc1)C(=O)[C@@H](N)CCCCN.O=C(O)C(F)(F)F.O=C(O)C(F)(F)F	-1
CCCCCCN(Cc1c2ccccc2c(Cl)c2ccccc12)C(=O)[C@@H](N)CCCCN.O=C(O)C(F)(F)F.O=C(O)C(F)(F)F	1
CCCCCCCCCCN(Cc1c2ccccc2c(Cl)c2ccccc12)C(=O)[C@@H](N)CCCCN.O=C(O)C(F)(F)F.O=C(O)C(F)(F)F	1
CCCCCCN(Cc1cccc2ccccc12)C(=O)[C@@H](N)CCCCN.O=C(O)C(F)(F)F.O=C(O)C(F)(F)F	-1

Exercise: Strictly below 20 µg/mL in MIC? "CCCCN(Cc1ccccc1)C(=O)[C@@H](N)CCCCN.O=C(O)C(F)(F)F.O=C(O)C(F)(F)F"
Solution: -1

Exercise: Strictly below 20 µg/mL in MIC? "CCCCCCCCCCN(Cc1cccc2ccccc12)C(=O)[C@@H](N)CCCCN.O=C(O)C(F)(F)F.O=C(O)C(F)(F)F"
Solution: 1

----------
assay: Hemolytic activity in human erythrocytes after 1 hr by spectrophotometric analysis; format: ADME, cell-based, Erythrocyte
Measured endpoint: HC50 at 1 h (µg/mL)
Write the number in µg/mL without appending the unit.

Consider the following illustrative entries.
Smiles code	HC50 at 1 h [µg/mL]
CCCCCCCCCCN(Cc1cccc2ccccc12)C(=O)[C@@H](N)CCCCN.O=C(O)C(F)(F)F.O=C(O)C(F)(F)F	54
CCCCCCCCN(Cc1cccc2ccccc12)C(=O)[C@@H](N)CCCCN.O=C(O)C(F)(F)F.O=C(O)C(F)(F)F	60

# HC50 at 1 h of "CCCCCCCCCCCCN(Cc1cccc2ccccc12)C(=O)[C@@H](N)CCCCN.O=C(O)C(F)(F)F.O=C(O)C(F)(F)F" = 56

# HC50 at 1 h of "CCN(Cc1c2ccccc2c(Cl)c2ccccc12)C(=O)[C@@H](N)CCCCN.O=C(O)C(F)(F)F.O=C(O)C(F)(F)F" = 118

----------
This section presents compounds with their documented MIC values.
tested on: Enterococcus faecium; assay: Antibacterial activity against vancomycin-resistant Enterococcus faecium ATCC 51559 after 24 hrs by broth microdilution assay; format: functional; conditions: ATCC 51559, 24 h
Write the number in µg/mL without appending the unit.

Smiles code	System	Quantitative readout
CCN(Cc1c2ccccc2c(Cl)c2ccccc12)C(=O)[C@@H](N)CCCCN.O=C(O)C(F)(F)F.O=C(O)C(F)(F)F	Enterococcus faecium	7.2
CCCCCCCCCCN(Cc1ccccc1)C(=O)[C@@H](N)CCCCN.O=C(O)C(F)(F)F.O=C(O)C(F)(F)F	Enterococcus faecium	5.8

# MIC of "CCCCCCCCCCN(Cc1cccc2ccccc12)C(=O)[C@@H](N)CCCCN.O=C(O)C(F)(F)F.O=C(O)C(F)(F)F" = 1.6

# MIC of "CCCCCCCCCCCCCCN(Cc1ccccc1)C(=O)[C@@H](N)CCCCN.O=C(O)C(F)(F)F.O=C(O)C(F)(F)F" = 2.5
